The reader will find reported IMAP Y2H IMAP2 (number of IST) values listed item by item below.
target: T1, HCV ORFs (Gal4-DB fusions) (Hepatitis C virus genotype 1b, UniProt Q9WMX2); assay type: binding, HCV genotype 1b, isolate con1; conditions: HCV protein NS5A as bait; human protein as prey;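 further: yeast two-hybrid screens using HCV genotype 1b proteins fused to Gal4-DB as baits against prey cDNA libraries from human spleen and foetal brain, IMAP1 via transformation and IMAP2 via mating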
T1 construct: expressed in transfected cells; host or cells: Saccharomyces cerevisiae MAV203 (IMAP1) / AH109 (IMAP2)
T1 sequence (Q9WMX2 1973-2419): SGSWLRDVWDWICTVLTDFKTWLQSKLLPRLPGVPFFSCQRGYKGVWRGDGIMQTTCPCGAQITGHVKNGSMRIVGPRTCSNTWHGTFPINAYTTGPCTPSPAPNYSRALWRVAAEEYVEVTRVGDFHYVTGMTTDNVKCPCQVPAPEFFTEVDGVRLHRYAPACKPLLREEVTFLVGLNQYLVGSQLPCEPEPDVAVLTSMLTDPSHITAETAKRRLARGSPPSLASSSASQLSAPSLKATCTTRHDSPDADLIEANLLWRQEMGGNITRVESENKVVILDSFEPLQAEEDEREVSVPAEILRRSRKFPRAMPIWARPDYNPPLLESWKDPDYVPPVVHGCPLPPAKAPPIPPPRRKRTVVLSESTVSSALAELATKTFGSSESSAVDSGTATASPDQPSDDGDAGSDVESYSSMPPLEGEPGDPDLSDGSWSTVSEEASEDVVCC

# Molecule, IMAP Y2H IMAP2 (number of IST)
measured = [
    ("PMVK (protein, UniProt Q15126 1-192, looked up) Phosphomevalonate kinase: MAPLGGAPRLVLLFSGKRKSGKDFVTEALQSRLGADVCAVLRLSGPLKEQYAQEHGLNFQRLLDTSTYKEAFRKDMIRWGEEKRQADPGFFCRKIVEGISQPIWLVSDTRRVSDIQWFREAYGAVTQTVRVVALEQSRQQRGWVFTPGVDDAESECGLDNFGDFDWVIENHGVEQRLEEQLENLIEFIRSRL", 1),
    ("MOBK1B (protein, UniProt Q7L9L4 2-216, looked up) MOB kinase activator 1B: SFLFGSRSSKTFKPKKNIPEGSHQYELLKHAEATLGSGNLRMAVMLPEGEDLNEWVAVNTVDFFNQINMLYGTITDFCTEESCPVMSAGPKYEYHWADGTNIKKPIKCSAPKYIDYLMTWVQDQLDDETLFPSKIGVPFPKNFMSVAKTILKRLFRVYAHIYHQHFDPVIQLQEEAHLNTSFKHFIFFVQEFNLIDRRELAPLQELIEKLTSKDR", 5),
]

Can you share its IMAP Y2H IMAP2 (number of IST)? I mean this molecule: PARVG (protein, UniProt Q9HBI0 1-331, looked up) Gamma-parvin: MEPEFLYDLLQLPKGVEPPAEEELSKGGKKKYLPPTSRKDPKFEELQKVLMEWINATLLPEHIVVRSLEEDMFDGLILHHLFQRLAALKLEAEDIALTATSQKHKLTVVLEAVNRSLQLEEWQAKWSVESIFNKDLLSTLHLLVALAKRFQPDLSLPTNVQVEVITIESTKSGLKSEKLVEQLTEYSTDKDEPPKDVFDELFKLAPEKVNAVKEAIVNFVNQKLDRLGLSVQNLDTQFADGVILLLLIGQLEGFFLHLKEFYLTPNSPAEMLHNVTLALELLKDEGLLSCPVSPEDIVNKDAKSTLRVLYGLFCKHTQKAHRDRTPHGAPN
1

Attribution: patent US20110091994A1
